biological target: Patatin-like phospholipase domain-containing protein 2 (Mus musculus); test: Inhibition of ATGL in mouse 3T3L1 cells assessed as inhibition of isoproterenol-stimulated lipolysis by measuring reduction in non-esterified fatty acid release in media at 20 uM preincubated for 4 hrs followed by isoproterenol addition measured after 1 hr by colorimetric assay; format: cell-based; settings: 3T3-L1
The source made the active and inactive calls. The rule behind the calls is not given here.
Result category, one only: active, inactive

These recorded examples may help you get a feel for the data.
[[record]]
chemical_smiles = "CN(C)C(=O)Nc1cccc(-c2cccc(N(C)C)c2)c1"
assigned_class = "inactive"

[[record]]
chemical_smiles = "CN(C)c1cccc(-c2cccc(N(C)C)c2)c1"
assigned_class = "inactive"

[[record]]
chemical_smiles = "CN(C)C(=O)Nc1cccc(-c2cccc(NC(=O)N(C)C)c2)c1"
assigned_class = "inactive"


For CN(C)C(=O)Nc1ccc(-c2ccc(N(C)C)cc2)cc1 , which call appears in the assay record?
inactive

For CN(C)C(=O)Nc1cccc(N(C)C)c1 , which call appears in the assay record?
inactive

For CN(C)c1ccc(-c2ccc(N(C)C)cc2)cc1 , which call appears in the assay record?
inactive

For CN(C)C(=O)Nc1ccc(-c2cccc(N(C)C)c2)cc1 , which call appears in the assay record?
inactive

For CN(C)C(=O)Nc1ccc(NC(=O)N(C)C)cc1 , which call appears in the assay record?
inactive

For CN(C)c1ccc(-c2ccccc2)cc1 , which call appears in the assay record?
inactive

----------
molecular target: Patatin-like phospholipase domain-containing protein 2 (Mus musculus) (UniProt Q8BJ56); assay: Inhibition of ATGL in mouse 3T3L1 cells assessed as inhibition of isoproterenol-stimulated lipolysis by measuring reduction in non-esterified fatty acid release in media at 20 uM preincubated for 4 hrs followed by isoproterenol addition measured after 1 hr by colorimetric assay; type: cell-based; conditions: 3T3-L1
Sequence (Q8BJ56 whole entry, the tested form may be a part): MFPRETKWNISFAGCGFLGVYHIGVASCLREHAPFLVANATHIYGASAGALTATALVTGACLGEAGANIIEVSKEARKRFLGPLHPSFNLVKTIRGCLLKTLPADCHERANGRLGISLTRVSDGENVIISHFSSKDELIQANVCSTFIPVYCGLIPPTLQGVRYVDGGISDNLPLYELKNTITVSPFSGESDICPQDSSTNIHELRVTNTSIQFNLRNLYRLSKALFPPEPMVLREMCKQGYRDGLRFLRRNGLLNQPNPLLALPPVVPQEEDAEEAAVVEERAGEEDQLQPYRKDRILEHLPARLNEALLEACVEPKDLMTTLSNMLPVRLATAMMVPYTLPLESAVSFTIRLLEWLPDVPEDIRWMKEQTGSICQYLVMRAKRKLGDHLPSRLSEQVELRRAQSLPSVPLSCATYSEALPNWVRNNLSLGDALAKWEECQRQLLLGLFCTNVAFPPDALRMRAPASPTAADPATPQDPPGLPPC
The source made the active and inactive calls. The rule behind the calls is not given here.
RESULT TYPE: inhibition

Take a look at these entries with their results.
[[record]]
chemical_smiles = "CN(C)C(=O)Nc1ccc(-c2ccc(NC(=O)N(C)C)cc2)cc1"
result_type = "inhibition"
value_reported = "inactive"

[[record]]
chemical_smiles = "CN(C)C(=O)Nc1cccc(-c2ccccc2)c1"
result_type = "inhibition"
value_reported = "Active"

[[record]]
chemical_smiles = "CN(C)C(=O)Nc1cccc(-c2ccc(N(C)C)cc2)c1"
result_type = "inhibition"
value_reported = "Active"

[[record]]
chemical_smiles = "CN(C)c1ccc(N(C)C)cc1"
result_type = "inhibition"
value_reported = "inactive"

[[record]]
chemical_smiles = "CN(C)c1cccc(-c2ccccc2)c1"
result_type = "inhibition"
value_reported = "inactive"


// moving on: another record for inhibition
What does the data say about its inhibition? Entry: CN(C)c1cccc(N(C)C)c1
inactive
